Hey, just so you know, these numbers are from patent US20090326029A1.

- ASSAYED_SYSTEM: PLK1 kinase domain (Homo sapiens, UniProt P53350)
- Construct: 6xHis (leader MKKGHHHHHHD) (N); made in house; host or cells: baculovirus infected T. ni cells
- Sequence (P53350 21-346): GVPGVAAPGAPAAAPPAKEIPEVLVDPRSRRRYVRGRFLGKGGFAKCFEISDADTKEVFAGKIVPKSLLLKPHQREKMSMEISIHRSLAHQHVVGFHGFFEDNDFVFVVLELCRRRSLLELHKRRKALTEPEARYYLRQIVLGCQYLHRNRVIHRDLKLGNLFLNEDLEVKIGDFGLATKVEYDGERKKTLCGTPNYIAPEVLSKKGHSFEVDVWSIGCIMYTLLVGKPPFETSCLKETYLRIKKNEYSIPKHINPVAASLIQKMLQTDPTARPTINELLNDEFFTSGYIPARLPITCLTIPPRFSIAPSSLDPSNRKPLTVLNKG
- ASSAY_DETAILS: Assay for Inhibition of PLK1 (SPA kinase assay)
- Format: biochemical
- CONDITION_SUMMARY: 2 nM PLK1 kinase domain, 1 μM ATP, 1 μM substrate peptide, 22° C.; read-out: PLK1 pIC50 (converted)
Counter-ions that a name gives are not always drawn.
QUANTITY_NAME: IC50

For this compound ( `C[C@@H](Oc1cc(-n2cnc3cc(-c4cnn(C)c4)ccc32)sc1C(N)=O)c1cccc(OCCO)c1Cl` ), measured IC50 is < 100 nM

For this compound ( `C[C@@H](Oc1cc(-n2cnc3cc(-c4cnn(C)c4)ccc32)sc1C(N)=O)c1cccc(OCCN(C)C)c1Cl` ), measured IC50 is < 100 nM

For this compound ( `C[C@@H](Oc1cc(-n2cnc3ccccc32)sc1C(N)=O)c1cccc(OCCN)c1Cl` ), measured IC50 is < 100 nM

For this compound ( COc1cc2ncn(-c3cc(O[C@H](C)c4cc(C(=O)NCCN(C)C)ccc4Cl)c(C(N)=O)s3)c2cc1OC [Example 1, formate] ), measured IC50 is 100 to 1000 nM
